Source: patent US20210246166A1

Below: a set of entries, each annotated with reported rat MASP2 IC50.
molecular target: recombinant rat MASP2 active protease (amino acids 296-685, C-terminal His Tag) (rat, UniProt Q9JJS8 296-685); experiment: cell-based or functional assay
Sequence (Q9JJS8 other isoform, or with tags, fused parts or gaps limits assumed): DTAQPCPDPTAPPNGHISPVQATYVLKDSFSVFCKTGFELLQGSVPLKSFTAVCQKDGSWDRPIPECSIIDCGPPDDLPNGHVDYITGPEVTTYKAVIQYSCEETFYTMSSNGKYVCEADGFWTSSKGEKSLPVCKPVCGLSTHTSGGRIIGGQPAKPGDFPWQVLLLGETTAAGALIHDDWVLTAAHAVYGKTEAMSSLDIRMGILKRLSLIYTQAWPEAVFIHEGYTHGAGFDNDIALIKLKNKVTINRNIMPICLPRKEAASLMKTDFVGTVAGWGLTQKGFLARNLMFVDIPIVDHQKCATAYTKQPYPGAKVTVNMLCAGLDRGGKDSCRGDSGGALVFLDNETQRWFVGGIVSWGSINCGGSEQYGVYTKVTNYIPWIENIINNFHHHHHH
Bridge positions count the residues as written; N and C are the ends. Square brackets hold non-standard residues; d marks the D form. Ends that are not written are not given here. His(τ-Bzl) = N[C@@H](Cc1cn(Cc2ccccc2)cn1)C(=O)O; Oic = O=C(O)[C@@H]1C[C@@H]2CCCC[C@@H]2N1; tBuAla = CC(C)(C)C[C@H](N)C(=O)O; Pen = CC(C)(S)[C@H](N)C(=O)O; ΔPro = O=C(O)[C@@H]1C=CCN1; Sar = CNCC(=O)O
READOUT NAME: rat MASP2 IC50 (nM)

{"BINDER": "[Sar]ICSRS[tBuAla]PPI[Pen]IP[His(τ-Bzl)]-OH (disulfide 3-11; N-terminus assumed; SMILES CC[C@H](C)[C@H](NC(=O)CNC)C(=O)N[C@H]1CSSC(C)(C)[C@@H](C(=O)N[C@H](C(=O)N2CCC[C@H]2C(=O)N[C@@H](Cc2cn(Cc3ccccc3)cn2)C(=O)O)[C@@H](C)CC)NC(=O)[C@H]([C@@H](C)CC)NC(=O)[C@@H]2CCCN2C(=O)[C@@H]2CCCN2C(=O)[C@H](CC(C)(C)C)NC(=O)[C@H](CO)NC(=O)[C@H](CCCNC(=N)N)NC(=O)[C@H](CO)NC1=O) [Example 447: ((N-Me)G)-IC+SRS-((tBu)A)-PPI-(Pen)+IP-((1-Bn)H)-OH]", "REPORTED": 35}
{"BINDER": "AICSRSL[ΔPro][Oic]I[Pen]IPD-OH (disulfide 3-11; N-terminus assumed; SMILES CC[C@H](C)[C@H](NC(=O)[C@H](C)N)C(=O)N[C@H]1CSSC(C)(C)[C@@H](C(=O)N[C@H](C(=O)N2CCC[C@H]2C(=O)N[C@@H](CC(=O)O)C(=O)O)[C@@H](C)CC)NC(=O)[C@H]([C@@H](C)CC)NC(=O)[C@@H]2C[C@@H]3CCCC[C@@H]3N2C(=O)[C@@H]2C=CCN2C(=O)[C@H](CC(C)C)NC(=O)[C@H](CO)NC(=O)[C@H](CCCNC(=N)N)NC(=O)[C@H](CO)NC1=O) [Example 237: AIC+SRSL-(L-dehydroproline)-(Oic)-I-(Pen)+IPD-OH]", "REPORTED": 1000}
